A short record of IC50 observed with UniProtKB P22303 follows.
Sequence (P22303 whole entry): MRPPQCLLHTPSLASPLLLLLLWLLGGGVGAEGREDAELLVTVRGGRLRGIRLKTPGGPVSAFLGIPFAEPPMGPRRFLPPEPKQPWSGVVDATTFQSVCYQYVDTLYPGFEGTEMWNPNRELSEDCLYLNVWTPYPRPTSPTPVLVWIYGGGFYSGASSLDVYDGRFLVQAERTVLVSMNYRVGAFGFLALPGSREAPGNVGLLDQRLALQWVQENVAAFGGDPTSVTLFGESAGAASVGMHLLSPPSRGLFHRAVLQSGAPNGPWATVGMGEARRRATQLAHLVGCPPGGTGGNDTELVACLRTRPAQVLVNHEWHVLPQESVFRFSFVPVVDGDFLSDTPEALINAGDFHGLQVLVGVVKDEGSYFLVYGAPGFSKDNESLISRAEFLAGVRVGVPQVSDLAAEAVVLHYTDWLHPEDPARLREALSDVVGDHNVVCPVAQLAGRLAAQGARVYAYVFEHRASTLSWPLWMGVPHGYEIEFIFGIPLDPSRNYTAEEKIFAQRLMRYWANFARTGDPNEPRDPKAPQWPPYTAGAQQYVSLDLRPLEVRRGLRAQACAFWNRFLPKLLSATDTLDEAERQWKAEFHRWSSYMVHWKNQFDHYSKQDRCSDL

| smiles | observable | measurement |
| --- | --- | --- |
| Cc1c(N2CCN(C)CC2)nc2ccccc2c1C(=O)N(C)Cc1ccccc1 | IC50 | > 10 µM |

Could you now consider this next molecule?
Need IC50, item `CCOC(=O)c1c(C)c(N2CCN(C)CC2)nc2ccccc12` > 10 µM

###

Target: Cholinesterase (Homo sapiens, UniProt P06276)
Sequence (P06276 whole entry): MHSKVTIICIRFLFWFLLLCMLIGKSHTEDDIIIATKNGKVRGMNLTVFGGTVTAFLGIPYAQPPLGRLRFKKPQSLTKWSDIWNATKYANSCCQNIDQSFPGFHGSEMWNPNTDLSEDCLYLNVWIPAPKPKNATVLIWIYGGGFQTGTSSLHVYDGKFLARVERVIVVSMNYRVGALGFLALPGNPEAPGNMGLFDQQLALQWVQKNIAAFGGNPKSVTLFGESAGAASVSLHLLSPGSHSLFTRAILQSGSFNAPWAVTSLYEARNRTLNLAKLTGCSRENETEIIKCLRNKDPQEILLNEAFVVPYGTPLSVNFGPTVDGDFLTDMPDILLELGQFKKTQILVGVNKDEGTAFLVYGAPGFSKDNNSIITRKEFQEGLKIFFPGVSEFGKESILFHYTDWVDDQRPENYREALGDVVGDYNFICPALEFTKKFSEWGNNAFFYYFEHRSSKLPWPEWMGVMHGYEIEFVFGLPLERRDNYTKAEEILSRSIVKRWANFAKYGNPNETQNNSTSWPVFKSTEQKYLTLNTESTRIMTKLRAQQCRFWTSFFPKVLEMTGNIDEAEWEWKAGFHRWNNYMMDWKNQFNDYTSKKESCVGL
Test: Inhibitory concentration against butyrylcholinesterase
observable: pIC50
In textbook form, pIC50 equals minus log to base ten of the concentration in mol/L.

| smiles | tested-target | observable | measurement |
| --- | --- | --- | --- |
| Cc1c(N2CCN(C)CC2)nc2ccccc2c1C(=O)NCCCCCCCNc1c2c(nc3ccccc13)CCCC2 | Cholinesterase (Homo sapiens, UniProt P06276) | pIC50 | 7.40 |

Could you now look at the following compound, please?
For the compound `Cc1c(Cl)nc2ccccc2c1C(=O)NCCCCCCCNc1c2c(nc3ccccc13)CCCC2` , what pIC50 is on record? 7.49
